Measured % DAMGO + BFNA by item
Tested on: mu opiate receptor (MOR)
assayMethodText: MOR agonist activity using [35S]GTPγS binding assay in striatal membranes
Type: biochemical
runParameters: Series C-1; 1 μM compound + β-FNA, relative to DAMGO + BFNA
Field: value (include unit after the number)

# molecule, measurementTarget, % DAMGO + BFNA
data = [
    ("CC(=O)c1ccc(C(=O)N2CCOC23CCN(S(=O)(=O)c2ccc(C(C)=O)cc2)CC3)cc1 [Compound C0053]", "mu opiate receptor (MOR)", "211.6%"),
    ("C[C@@H](NC(=O)[C@@H](N)Cc1ccc(O)cc1)C(=O)NCC(=O)N(C)[C@@H](Cc1ccccc1)C(=O)NCCO [DAMGO, [D-Ala2, N-MePhe4, Gly-ol]-enkephalin, reference compound]", "mu opiate receptor (MOR)", "100%"),
    ("O=S(=O)(c1ccc(Br)cc1C(F)(F)F)N1CCC2(CC1)OCCN2S(=O)(=O)c1ccc(Br)cc1C(F)(F)F [Compound C0068]", "mu opiate receptor (MOR)", "307.8%"),
    ("CC(=O)c1ccc(S(=O)(=O)N2CCC3(CC2)OCC(CCCCN(C)C)N3S(=O)(=O)c2ccc(C(C)=O)cc2)cc1 (stereo not drawn) [Compound C0080]", "mu opiate receptor (MOR)", "351.8%"),
    ("COc1ccc(NC(=O)N2CCC3(CC2)OCCN3S(=O)(=O)c2ccc(OC)cc2)cc1 [Compound C0041]", "mu opiate receptor (MOR)", "575.3%"),
]

Turning to the following molecule.
(Q) Recorded % DAMGO + BFNA of O=S(=O)(c1cccc2cccnc12)N1CCC2(CC1)OCCN2S(=O)(=O)c1cccc2cccnc12 [Compound C0143M] , please.
(A) 94.7%
